The measurements presented in this section are drawn from ChEMBL document CHEMBL1124638.

Listing of entries alongside the reported MIC.
# Test system: Streptococcus pyogenes
# assay-method-text: Comparative in vitro antibacterial activity of compound with trimethoprim against Streptococcus pyogenes CN10
# Assay type: functional
# value in µg/mL; strip the unit string

-- ask Fill in the recorded MIC for this compound, with Streptococcus pyogenes as test system: COc1cc(Cc2cnc(N)nc2N)cc2c1N(CCO)CCC2C (stereo unspecified)
-- reply 3

-- ask For CCc1cc(Cc2cnc(N)nc2N)cc2c1N(C)CCC2C (stereo unspecified) then?
-- reply 1

-- ask For COCCN1CCC(C)c2cc(Cc3cnc(N)nc3N)cc(OC)c21 (stereo unspecified) then?
-- reply 1

-- ask For `COc1cc(Cc2cnc(N)nc2N)cc2cccnc12` then?
-- reply 3

-- ask For `Cc1ccnc2ccc(Cc3cnc(N)nc3N)c(N)c12` then?
-- reply 30

-- ask For COc1cc(Cc2cnc(N)nc2N)cc2c1NCC(CO)C2 (stereo unspecified) then?
-- reply 10

###

# Tested on: Shigella flexneri
# assay-method-text: Comparative in vitro antibacterial activity with trimethoprim against Shigella flexneri CN6007
# Type: functional
Listing of entries alongside the reported MIC.

-- ask Fill in the recorded MIC for this compound, with Shigella flexneri as test system: COCCN1CCC(C)c2cc(Cc3cnc(N)nc3N)cc(OC)c21 (configuration not stated)
-- reply 100 µg/mL

-- ask For `COc1cc(Cc2cnc(N)nc2N)cc2c(C)cc(C)nc12` then?
-- reply 3 µg/mL

###

Listing of entries alongside the reported MIC.
# Tested on: Serratia marcescens
# assay-method-text: Comparative in vitro antibacterial activity with trimethoprim against Serratia marcescens CN2398
# Format: functional
# value in mg/L; strip the unit string

Take a look at these entries with their results.
compound	result-unit	MIC
COc1cc(Cc2cnc(N)nc2N)cc2c(C)ccnc12	mg/L	1
CCc1cc(Cc2cnc(N)nc2N)cc2c1N(C)CCC2C (stereo unspecified)	mg/L	3
Nc1ncc(Cc2ccc3c(c2)CCCN3)c(N)n1	mg/L	10
COc1cc(Cc2cnc(N)nc2N)cc2c1NCCC2C (stereo unspecified)	mg/L	3
CC1CCNc2ccc(Cc3cnc(N)nc3N)cc21 (stereo unspecified)	mg/L	10
CN1CCCc2cc(Cc3cnc(N)nc3N)ccc21	mg/L	30
COc1cc(Cc2cnc(N)nc2N)cc2cccnc12	mg/L	1
Nc1ncc(Cc2ccc3ncccc3c2)c(N)n1	mg/L	3

-- ask I would be grateful if you could share the reported MIC for `Cc1ccnc2ccc(Cc3cnc(N)nc3N)cc12` .
-- reply 1

-- ask For COc1cc(Cc2cnc(N)nc2N)cc2c1N(C)CCC2C (stereo unspecified) then?
-- reply 3

###

# System: Streptococcus pyogenes
# assay-method-text: Comparative in vitro antibacterial activity of compound with trimethoprim against Streptococcus pyogenes CN10
# Assay type: functional
Listing of entries alongside the reported MIC.
Record the result as number plus unit.

Take a look at these entries with their results.
compound	MIC
COc1cc(Cc2cnc(N)nc2N)cc2c1NCCC2	3 µg/mL
Nc1ncc(Cc2ccc3c(c2)CCCN3)c(N)n1	10 µg/mL
CCOC(=O)C1CNc2c(cc(Cc3cnc(N)nc3N)cc2OC)C1 (stereo unspecified)	3 µg/mL

-- ask I would be grateful if you could share the reported MIC for COc1cc(Cc2cnc(N)nc2N)cc2c1NCC(COC(C)=O)C2 (stereo unspecified) .
-- reply 3 µg/mL

-- ask For `Cc1ccnc2c([N+](=O)[O-])cc(Cc3cnc(N)nc3N)cc12` then?
-- reply 1 µg/mL

-- ask For `COCCOc1cc(Cc2cnc(N)nc2N)cc2c1NCCC2` then?
-- reply 3 µg/mL

###

# assay-method-text: Comparative in vitro antibacterial activity with trimethoprim against Salmonella typhi CN512
# Format: functional, salmonella typhosa
Just a reminder that ties go to label 0: only MIC strictly below 30 µg/mL counts as label 1.

molecule	category
Nc1ncc(Cc2ccc3ncccc3c2)c(N)n1	label 1
CCN1CCC(C)c2cc(Cc3cnc(N)nc3N)ccc21 (stereo unspecified)	label 0
COc1cc(Cc2cnc(N)nc2N)cc2c(C)cc(C)nc12	label 1
COc1cc(Cc2cnc(N)nc2N)cc2c(C)ccnc12	label 1
CCOC(=O)C1CNc2c(cc(Cc3cnc(N)nc3N)cc2OC)C1 (stereo unspecified)	label 0

-- ask Lab note: confirm whether the reported MIC for this molecule is below 30 µg/mL, equality not counting. molecule: COc1cc(Cc2cnc(N)nc2N)cc2c1N(C)CCC2C (stereo unspecified)
-- reply label 1

-- ask For CC1CC(C)c2cc(Cc3cnc(N)nc3N)cc(Cl)c2N1 (stereo unspecified) then?
-- reply label 0

-- ask For CCc1cc(Cc2cnc(N)nc2N)cc2c1N(C)CCC2C (stereo unspecified) then?
-- reply label 1

-- ask For `Cc1ccnc2c(N)cc(Cc3cnc(N)nc3N)cc12` then?
-- reply label 1

-- ask For `COCCOc1cc(Cc2cnc(N)nc2N)cc2cccnc12` then?
-- reply label 0

###

Entries with reported pIC50 on Dihydrofolate reductase (Rattus norvegicus, UniProt Q920D2)
Sequence (Q920D2 whole entry): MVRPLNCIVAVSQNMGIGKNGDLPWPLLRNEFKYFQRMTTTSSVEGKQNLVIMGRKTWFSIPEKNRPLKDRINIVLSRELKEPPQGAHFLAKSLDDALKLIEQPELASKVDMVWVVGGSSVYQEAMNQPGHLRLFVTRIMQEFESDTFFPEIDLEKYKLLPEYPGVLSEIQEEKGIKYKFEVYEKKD
Schema: pIC50 number; meaning minus log10 of the concentration expressed in molar units.

Take a look at these entries with their results.
molecule	pIC50
COCCN1CCC(C)c2cc(Cc3cnc(N)nc3N)cc(OC)c21 (configuration not stated)	3.59
Cc1ccnc2ccc(Cc3cnc(N)nc3N)c(N)c12	4.82
CC1CCNc2ccc(Cc3cnc(N)nc3N)cc21 (configuration not stated)	4.66
COCCOc1cc(Cc2cnc(N)nc2N)cc2cccnc12	5.00
CCN1CCC(C)c2cc(Cc3cnc(N)nc3N)ccc21 (configuration not stated)	4.42
CCOC(=O)C1CNc2c(cc(Cc3cnc(N)nc3N)cc2OC)C1 (configuration not stated)	4.36
COc1cc(Cc2cnc(N)nc2N)cc2c(C)cc(C)nc12	4.37
Nc1ncc(Cc2ccc3c(c2)CCCN3)c(N)n1	3.85
COc1cc(Cc2cnc(N)nc2N)cc2c1N(CCOC(C)=O)CCC2C (configuration not stated)	3.72
CCN1CC(CO)Cc2cc(Cc3cnc(N)nc3N)cc(OC)c21 (configuration not stated)	3.36

-- ask I would be grateful if you could share the reported pIC50 for COc1cc(Cc2cnc(N)nc2N)cc2c1NCC(CO)C2 (configuration not stated) .
-- reply 4.19

-- ask For `COCCOc1cc(Cc2cnc(N)nc2N)cc2c1NCCC2` then?
-- reply 3.77

###

# tgt: Dihydrofolate reductase (Rattus norvegicus, UniProt Q920D2)
# assay-method-text: Inhibitory activity against dihydrofolate reductase in rat liver
# conditions: read-out: I50
Listing of entries alongside the reported pIC50.
Schema: pIC50 number; meaning minus log10 of the concentration expressed in molar units.

Take a look at these entries with their results.
molecule	metric	quantitative-readout
COc1cc(Cc2cnc(N)nc2N)cc2c1NCCC2	pIC50	4.12
Nc1ncc(Cc2ccc3ncccc3c2)c(N)n1	pIC50	4.74

-- ask I would be grateful if you could share the reported pIC50 for `CN1CCCc2cc(Cc3cnc(N)nc3N)ccc21` .
-- reply 4.05

-- ask For `Cc1ccnc2ccc(Cc3cnc(N)nc3N)cc12` then?
-- reply 4.66

###

Entries with reported IC50 on Dihydrofolate reductase (Neisseria gonorrhoeae, UniProt P04174)
Sequence (P04174 whole entry): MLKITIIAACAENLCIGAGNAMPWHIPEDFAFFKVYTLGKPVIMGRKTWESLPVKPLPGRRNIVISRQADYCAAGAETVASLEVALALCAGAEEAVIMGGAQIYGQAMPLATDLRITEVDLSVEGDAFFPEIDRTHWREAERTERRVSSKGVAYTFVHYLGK

molecule	IC50
COc1cc(Cc2cnc(N)nc2N)cc2c1N(CCO)CCC2C (centres undefined)	610 nM

Now take the following molecule into account.
-- ask I would be grateful if you could share the reported IC50 for CCN1CCC(C)c2cc(Cc3cnc(N)nc3N)ccc21 (centres undefined) .
-- reply 690 nM

###

# System: Enterococcus faecalis
# assay-method-text: Comparative in vitro antibacterial activity with trimethoprim against Streptococcus faecalis CN478
# Type: functional
metric: MIC (µg/mL)
# value in µg/mL; strip the unit string

Take a look at these entries with their results.
molecule	metric	quantitative-readout
Nc1ncc(Cc2ccc3c(c2)CCCN3)c(N)n1	MIC	10
CCN1CCC(C)c2cc(Cc3cnc(N)nc3N)ccc21 (stereo unspecified)	MIC	3
Cc1ccnc2ccc(Cc3cnc(N)nc3N)cc12	MIC	1
COCCN1CCC(C)c2cc(Cc3cnc(N)nc3N)cc(OC)c21 (stereo unspecified)	MIC	0.3
CCc1cc(Cc2cnc(N)nc2N)cc2c1N(C)CCC2C (stereo unspecified)	MIC	0.03

-- ask I would be grateful if you could share the reported MIC for `Nc1ncc(Cc2ccc3ncccc3c2)c(N)n1` .
-- reply 3

-- ask For CCN1CC(CO)Cc2cc(Cc3cnc(N)nc3N)cc(OC)c21 (stereo unspecified) then?
-- reply 3

-- ask For `COc1cc(Cc2cnc(N)nc2N)cc2cccnc12` then?
-- reply 3

###

# System: Shigella flexneri
# assay-method-text: Comparative in vitro antibacterial activity with trimethoprim against Shigella flexneri CN6007
# Format: functional
Just a reminder that ties go to Not satisfied: only MIC strictly below 30 µg/mL counts as Satisfied.

compound	tgt	category
Cc1ccnc2ccc(Cc3cnc(N)nc3N)c(N)c12	Shigella flexneri	Not satisfied
COc1cc(Cc2cnc(N)nc2N)cc2c1NCCC2	Shigella flexneri	Satisfied
COCCOc1cc(Cc2cnc(N)nc2N)cc2cccnc12	Shigella flexneri	Not satisfied
CC1CC(C)c2cc(Cc3cnc(N)nc3N)cc(Cl)c2N1 (centres undefined)	Shigella flexneri	Not satisfied
CN1CCCc2cc(Cc3cnc(N)nc3N)ccc21	Shigella flexneri	Satisfied

Read the next record carefully.
-- ask Lab note: confirm whether the reported MIC for this compound is below 30 µg/mL, equality not counting. compound: CCN1CC(CO)Cc2cc(Cc3cnc(N)nc3N)cc(OC)c21 (centres undefined)
-- reply Not satisfied
